System: P12-Ichikawa
ASSAY PROCEDURE: cell viability relative to DMSO control; higher = less cytotoxic
CONDITION SET: RPMI 5 mM glucose + 10% dialyzed FBS; 48 h; 0.0211 µM
# cell viability annotations
Give the quantity in %, number only.

Recorded cell viability, per entry:
COc1ccc(CC2NCCc3cc(OC)c(OC)cc32)cc1OC (stereo not given)
87.9
C[C@@H](NC1=CC=CC=C1C(O)=O)C/2=C/C(=C\N3C(=O)/C=C(\N=C23)N4CCOCC4)C
92.9
COC1=CC=CC2=C1C(=NC(=N2)C3=CC=CS3)NN4C(=O)\C=C(C)/C4=O
86.7
Cn1c(=O)c2c(ncn2C)n(C)c1=O.O=C(O)CC(O)(CC(=O)O)C(=O)O
111

Note: attention shifts to another entry.
Could you tell me which cell viability is on file for Cc1ccccc1C(C(=O)NC1CCCCC1)N(C(=O)Cn1ccnc1C)c1cccc(F)c1 (stereo not given) ?
104

---

Entries and their cell viability values follow.
System: P12-Ichikawa
ASSAY PROCEDURE: cell viability relative to DMSO control; higher = less cytotoxic
CONDITION SET: RPMI 5 mM glucose + 10% dialyzed FBS; 48 h; 0.00234 µM
All answers are understood in %, so give the number only.

COc1cc2nc(N(C)CCCNC(=O)C3CCCO3)nc(N)c2cc1OC (stereo not given)
81.7
ClC1=C(N\C2=N\CCN2)C3=NSN=C3C=C1
115
CC1(C)Cc2c(-c3ccccc3)c(-c3ccc(Cl)cc3)c(CC(=O)O)n2C1
108
CNC1CCC(N(Cc2cccc(-c3ccncc3)c2)C(=O)c2sc3ccccc3c2Cl)CC1 (stereo not given)
86.1

Turning now to a further compound:
Give its cell viability value. Item: O=C([O-])C(O)Cc1ccc(O)c(O)c1 (stereo not given)
99.2

---

Tested on: NOMO1
ASSAY PROCEDURE: AUC of viability dose-response curve (% viability x log10 dose units); higher = less sensitive
CONDITION SET: RPMI 5 mM glucose + 10% FBS; 48 h
ENDPOINT: AUC of viability dose-response curve
Answer field: number only, no words.

Check out these entries, answers already filled in.
CC[C@H](CC#N)OC(=O)N[C@@H](C)c1cccc(NC(=O)Nc2ccc(-c3cnco3)c(OC)c2)c1
368
CN[S+](=O)([O-])Cc1ccc2[nH]cc(CCN(C)C)c2c1
443
CC1(C)CCC[C@]2(C)[C@H]3CC(=O)O[C@]3(C)CC[C@@H]12
468
COc1cc2nc(N(C)CCCNC(=O)C3CCCO3)nc(N)c2cc1OC (stereo not given)
297

Please find the next compound below.
Form field - read-out: AUC of viability dose-response curve; system: NOMO1; submitted item: CN1[C@@H]2CC[C@H]1CC(OC(=O)c1c[nH]c3ccccc13)C2 (stereo not given in full)
459

---

System: SEM cells
ASSAY PROCEDURE: cell viability relative to DMSO control; higher = less cytotoxic
CONDITION SET: RPMI 5 mM glucose + 10% dialyzed FBS; 48 h; 5.12 µM
ENDPOINT: cell viability
Remember to quote the unit after the number.

Recorded cell viability, per entry:
Cc1cc(OCCCc2c(C(=O)O)n(Cc3cccnc3)c3c(-c4c(COc5ccc(N6CCN([S+](C)(=O)[O-])CC6)cc5)nn(C)c4C)cccc23)cc(C)c1Cl
89.8%
COc1ccc(Cc2ccc(NC(N)=O)cc2)cc1-c1cccc(Cl)c1
120%
CN(C)CCOc1cc(-c2cn[nH]c2)ccc1NC(=O)C1COc2ccccc2O1 (centres undefined)
98.3%

Okay, next one:
Which cell viability is reported for this molecule? `COc1cnc(N[S+](=O)([O-])c2ccc(N)cc2)nc1`
117%
